- assayedSystem: HIV Env of isolate BJOX010000.06.2 (clade AE) (HIV)
- assayText: cell-based or functional assay
readoutKind: IC80 (µg/ml) with constrains (µg/mL)
Give the value in µg/mL but do not write µg/mL after it.

Query string: For the binder shown here, ePGDM9 (antibody, V domains shown) VH: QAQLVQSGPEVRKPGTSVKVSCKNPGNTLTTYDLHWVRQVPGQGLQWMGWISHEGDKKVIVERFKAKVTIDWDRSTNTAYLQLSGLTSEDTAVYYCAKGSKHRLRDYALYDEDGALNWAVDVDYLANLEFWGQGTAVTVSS VL: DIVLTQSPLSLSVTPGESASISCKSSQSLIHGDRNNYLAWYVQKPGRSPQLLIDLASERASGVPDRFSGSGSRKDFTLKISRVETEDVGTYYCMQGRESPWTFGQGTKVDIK , give the reported IC80 (µg/ml) with constrains.
Result string: 1.17
